protocol.description: Pharmacokinetics in plasma and lung in mouse after oral aspiration administration
Assay type: in vivo
experimental.conditions: mouse, inhaled or intranasal, 0.01 mg/mouse, male CD1 mice, 0.2 mg/mL, two 25 μL increments, plasma, read-out: Plasma AUC(0-24)
Give measured AUC(0-t) for each item. Keep answers brief.

For this molecule ( CCc1cc(O)ccc1-c1ccc2c(-c3nc(C4=CCCNC4)c[nH]3)n[nH]c2c1F ), measured AUC(0-t) is 500 to 1000 ng·h/mL

For this molecule ( CCc1cc(O)ccc1-c1ccc2c(-c3nc(C4=CCN(C[C@@H]5COCCN5)CC4)c[nH]3)n[nH]c2c1 ), measured AUC(0-t) is 500 to 1000 ng·h/mL

For this molecule ( CCc1cc(O)ccc1-c1ccc2c(-c3nc(C4=CCN(C5CCN(C)CC5)C4)c[nH]3)n[nH]c2c1F ), measured AUC(0-t) is 500 to 1000 ng·h/mL

For this molecule ( CCc1cc(O)ccc1-c1ccc2c(-c3nc(C4=C[C@@H](COC)NC4)c[nH]3)n[nH]c2c1F ), measured AUC(0-t) is < 500 ng·h/mL

For this molecule ( CCc1cc(O)ccc1-c1ccc2c(-c3nc(C4=CCN(C[C@H](C)CO)CC4)c[nH]3)n[nH]c2c1F ), measured AUC(0-t) is < 500 ng·h/mL

For this molecule ( CCc1cc(O)ccc1-c1ccc2c(-c3nc(C4=C[C@H](COC)NC4)c[nH]3)n[nH]c2c1F ), measured AUC(0-t) is < 500 ng·h/mL

For this molecule ( CCc1cc(O)ccc1-c1ccc2c(-c3nc(C4=C[C@H](CO)NC4)c[nH]3)n[nH]c2c1F ), measured AUC(0-t) is 500 to 1000 ng·h/mL

---

Give measured Ki for each item. Keep answers brief.
study.system: UniProtKB P23458
Sequence (P23458 whole entry): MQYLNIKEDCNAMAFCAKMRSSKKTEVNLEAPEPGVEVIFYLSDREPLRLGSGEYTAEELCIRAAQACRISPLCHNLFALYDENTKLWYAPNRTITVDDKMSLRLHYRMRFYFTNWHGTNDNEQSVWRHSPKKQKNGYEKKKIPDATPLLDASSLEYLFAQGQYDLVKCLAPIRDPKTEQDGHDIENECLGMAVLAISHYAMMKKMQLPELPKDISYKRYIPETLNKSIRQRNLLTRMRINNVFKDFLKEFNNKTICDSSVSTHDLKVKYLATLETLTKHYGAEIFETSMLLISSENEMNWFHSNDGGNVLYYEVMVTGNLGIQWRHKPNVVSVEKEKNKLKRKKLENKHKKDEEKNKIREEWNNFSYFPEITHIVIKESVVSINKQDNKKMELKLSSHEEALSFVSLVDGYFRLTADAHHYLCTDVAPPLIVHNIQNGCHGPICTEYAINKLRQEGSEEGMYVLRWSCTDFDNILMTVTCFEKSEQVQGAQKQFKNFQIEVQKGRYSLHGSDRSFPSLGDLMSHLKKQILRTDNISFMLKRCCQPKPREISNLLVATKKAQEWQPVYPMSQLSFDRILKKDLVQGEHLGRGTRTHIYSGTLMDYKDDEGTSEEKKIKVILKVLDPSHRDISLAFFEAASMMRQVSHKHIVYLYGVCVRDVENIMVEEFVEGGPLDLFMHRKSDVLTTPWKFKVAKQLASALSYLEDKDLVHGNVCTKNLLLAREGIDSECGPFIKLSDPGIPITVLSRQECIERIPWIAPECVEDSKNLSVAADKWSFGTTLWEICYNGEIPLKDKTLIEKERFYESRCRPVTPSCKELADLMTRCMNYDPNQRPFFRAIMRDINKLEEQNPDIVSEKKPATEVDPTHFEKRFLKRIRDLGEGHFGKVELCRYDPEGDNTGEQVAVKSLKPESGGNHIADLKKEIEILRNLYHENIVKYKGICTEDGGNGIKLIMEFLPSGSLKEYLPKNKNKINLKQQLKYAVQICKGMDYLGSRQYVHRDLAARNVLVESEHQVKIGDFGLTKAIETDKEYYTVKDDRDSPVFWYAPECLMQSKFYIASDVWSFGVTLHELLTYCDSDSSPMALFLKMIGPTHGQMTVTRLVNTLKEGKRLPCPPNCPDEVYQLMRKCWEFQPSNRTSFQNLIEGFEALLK
protocol.description: Biochemical JAK kinase assay (LanthaScreen), JAK1
experimental.conditions: read-out: JAK1 pKi (converted)

For this compound ( CCc1cc(O)ccc1-c1ccc2c(-c3nc(C4=CCCN(C(C)CO)C4)c[nH]3)n[nH]c2c1F (stereo not shown) ), measured Ki is 0.1 to 1 nM

For this compound ( CCc1cc(O)ccc1-c1ccc2c(-c3nc(C4=C(C)CCNC4)c[nH]3)n[nH]c2c1F ), measured Ki is 0.1 to 1 nM

For this compound ( CCc1cc(O)ccc1-c1ccc2c(-c3nc(C4=CCN(CC5CCCO5)CC4)c[nH]3)n[nH]c2c1F (stereo not shown) ), measured Ki is 0.1 to 1 nM

For this compound ( CCOC(=O)C1=C(c2c[nH]c(-c3n[nH]c4c(F)c(-c5ccc(O)cc5CC)ccc34)n2)CCNC1 ), measured Ki is 0.1 to 1 nM

---

Give measured AUC(0-t) for each item. Keep answers brief.
protocol.description: Pharmacokinetics in plasma and lung in mouse after oral aspiration administration
Format: in vivo
experimental.conditions: mouse, inhaled or intranasal, 0.01 mg/mouse, male CD1 mice, 0.2 mg/mL, two 25 μL increments, plasma, read-out: Plasma AUC(0-24)

For this compound ( CCc1cc(O)ccc1-c1ccc2c(-c3nc(C4=CCN(C5CN(C)C5)CC4)c[nH]3)n[nH]c2c1 [Compound 15] ), measured AUC(0-t) is < 500 ng·h/mL

For this compound ( CCc1cc(O)ccc1-c1ccc2c(-c3nc(C4=CCNCC4)c[nH]3)n[nH]c2c1F [Compound 2] ), measured AUC(0-t) is 500 to 1000 ng·h/mL

For this compound ( CCc1cc(O)ccc1-c1ccc2c(-c3nc(C4=CCN(C(C)C)C4)c[nH]3)n[nH]c2c1F [Example 32] ), measured AUC(0-t) is < 500 ng·h/mL

For this compound ( CCc1cc(O)ccc1-c1ccc2c(-c3nc(C4=CCNC4)c[nH]3)n[nH]c2c1F [Compound 1] ), measured AUC(0-t) is 500 to 1000 ng·h/mL

---

Give measured IC50 for each item. Keep answers brief.
Tested on: IL-13 induced STAT6 phosphorylation in BEAS-2B human lung epithelial cells
protocol.description: Cellular JAKI potency assay (BEAS-2B)
Assay type: cell-based
experimental.conditions: Homo sapiens, BEAS-2B, BEAS-2B cells, read-out: BEAS2B pIC50 (converted)

For this compound ( CCc1cc(O)ccc1-c1ccc2c(-c3nc(C4=CCN(CCN5CCOCC5)CC4)c[nH]3)n[nH]c2c1 ), measured IC50 is 3.16 to 10 nM

For this compound ( CCc1cc(O)ccc1-c1ccc2c(-c3nc(C4=CCN([C@H]5CC[C@@](C)(O)CC5)C4)c[nH]3)n[nH]c2c1F ), measured IC50 is 10 to 31.6 nM

For this compound ( CCc1cc(O)ccc1-c1ccc2c(-c3nc(C4=CCNC(CC)C4)c[nH]3)n[nH]c2c1F (stereo not shown) ), measured IC50 is 10 to 31.6 nM

For this compound ( CCc1cc(O)ccc1-c1ccc2c(-c3nc(C4=CCN(CCNS(=O)(=O)C(C)C)CC4)c[nH]3)n[nH]c2c1 ), measured IC50 is 10 to 31.6 nM

For this compound ( CCc1cc(O)ccc1-c1ccc2c(-c3nc(C4=CCN(CCNC(=O)C(C)C)CC4)c[nH]3)n[nH]c2c1 ), measured IC50 is 3.16 to 10 nM

For this compound ( CCOC(=O)C1CC=C(c2c[nH]c(-c3n[nH]c4c(F)c(-c5ccc(O)cc5CC)ccc34)n2)CN1 (stereo not shown) ), measured IC50 is 10 to 31.6 nM

For this compound ( CCc1cc(O)c(F)cc1-c1ccc2c(-c3nc(C4=CCNC4)c[nH]3)n[nH]c2c1F ), measured IC50 is 3.16 to 10 nM

---

study.system: TYK2 (Homo sapiens (Human))
Sequence (P29597 whole entry): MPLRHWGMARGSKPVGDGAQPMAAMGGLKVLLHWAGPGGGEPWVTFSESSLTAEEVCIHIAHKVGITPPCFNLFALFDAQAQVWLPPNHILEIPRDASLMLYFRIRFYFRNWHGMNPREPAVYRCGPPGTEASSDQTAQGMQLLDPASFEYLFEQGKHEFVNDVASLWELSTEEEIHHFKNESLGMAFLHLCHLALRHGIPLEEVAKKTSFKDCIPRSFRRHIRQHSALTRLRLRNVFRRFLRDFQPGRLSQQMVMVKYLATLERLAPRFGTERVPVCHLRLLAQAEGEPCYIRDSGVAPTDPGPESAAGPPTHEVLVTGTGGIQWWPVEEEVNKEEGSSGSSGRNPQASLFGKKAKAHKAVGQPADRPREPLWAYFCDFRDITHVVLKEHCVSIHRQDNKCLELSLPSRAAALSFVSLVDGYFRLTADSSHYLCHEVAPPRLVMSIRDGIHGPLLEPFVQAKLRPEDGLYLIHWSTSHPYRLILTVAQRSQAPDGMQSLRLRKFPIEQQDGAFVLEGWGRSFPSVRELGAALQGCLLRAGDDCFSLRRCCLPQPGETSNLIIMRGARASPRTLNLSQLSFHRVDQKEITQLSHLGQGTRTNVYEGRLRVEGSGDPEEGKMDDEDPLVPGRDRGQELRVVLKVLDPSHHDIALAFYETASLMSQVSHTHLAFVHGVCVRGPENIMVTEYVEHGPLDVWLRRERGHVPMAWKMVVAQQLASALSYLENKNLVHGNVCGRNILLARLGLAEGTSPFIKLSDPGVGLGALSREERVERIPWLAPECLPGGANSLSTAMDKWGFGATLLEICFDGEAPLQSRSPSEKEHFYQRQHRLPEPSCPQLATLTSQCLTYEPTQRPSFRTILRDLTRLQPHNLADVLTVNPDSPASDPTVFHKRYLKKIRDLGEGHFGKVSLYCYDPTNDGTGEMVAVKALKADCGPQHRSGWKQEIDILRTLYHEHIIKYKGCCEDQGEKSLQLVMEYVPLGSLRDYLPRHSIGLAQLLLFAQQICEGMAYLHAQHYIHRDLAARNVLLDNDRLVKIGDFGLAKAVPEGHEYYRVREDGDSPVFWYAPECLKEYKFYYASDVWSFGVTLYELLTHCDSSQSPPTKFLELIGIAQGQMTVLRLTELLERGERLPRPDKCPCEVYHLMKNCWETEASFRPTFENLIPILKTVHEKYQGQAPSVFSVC
protocol.description: Biochemical JAK kinase assay (LanthaScreen), Tyk2
experimental.conditions: read-out: Tyk2 pKi (converted)
result.type: Ki

For this molecule ( CCc1cc(O)ccc1-c1ccc2c(-c3nc(C4=CCCN(C5CN(C)C5)C4)c[nH]3)n[nH]c2c1F ), measured Ki is 1 to 10 nM

For this molecule ( CCc1cc(O)ccc1-c1ccc2c(-c3nc(C4=CCN(C(=O)[C@@H]5CCCN5)CC4)c[nH]3)n[nH]c2c1 ), measured Ki is 1 to 10 nM

For this molecule ( CCc1cc(O)ccc1-c1ccc2c(-c3nc(C4=CCN(CCO)C4)c[nH]3)n[nH]c2c1F ), measured Ki is 1 to 10 nM

For this molecule ( CCc1cc(O)ccc1-c1ccc2c(-c3nc(C4=CCN(C(=O)[C@@H](N)C(C)(C)O)C4)c[nH]3)n[nH]c2c1 ), measured Ki is 0.1 to 1 nM

For this molecule ( CCc1cc(O)ccc1-c1ccc2c(-c3nc(C4=CCN(CCNC)CC4)c[nH]3)n[nH]c2c1F ), measured Ki is 1 to 10 nM

For this molecule ( CCOC(=O)C1CC=C(c2c[nH]c(-c3n[nH]c4c(F)c(-c5ccc(O)cc5CC)ccc34)n2)CN1 (stereo not shown) ), measured Ki is 1 to 10 nM

For this molecule ( CCc1cc(O)ccc1-c1ccc2c(-c3nc(C4=CCN(C5CCN(C)CC5)C4)c[nH]3)n[nH]c2c1 ), measured Ki is 0.1 to 1 nM

For this molecule ( CCc1cc(O)ccc1-c1ccc2c(-c3nc(C4=CCN(C5CN(C)C5)CC4)c[nH]3)n[nH]c2c1 ), measured Ki is 1 to 10 nM

For this molecule ( CCc1cc(O)ccc1-c1ccc2c(-c3nc(C4=CCNCC4)c[nH]3)n[nH]c2c1 ), measured Ki is 0.1 to 1 nM

For this molecule ( CCc1cc(O)ccc1-c1ccc2c(-c3nc(C4=CC5CCCC(C4)N5)c[nH]3)n[nH]c2c1 (stereo not shown) ), measured Ki is 1 to 10 nM

For this molecule ( CCc1cc(O)ccc1-c1ccc2c(-c3nc(C4=CCCN(C5CCN(C)C5)C4)c[nH]3)n[nH]c2c1F (stereo not shown) ), measured Ki is 1 to 10 nM

For this molecule ( CCc1cc(O)ccc1-c1ccc2c(-c3nc(C4=CCN(C5CCCNC5)CC4)c[nH]3)n[nH]c2c1F (stereo not shown) ), measured Ki is 1 to 10 nM

For this molecule ( CCc1cc(O)ccc1-c1ccc2c(-c3nc(C4=CCN(CCSC)CC4)c[nH]3)n[nH]c2c1F ), measured Ki is 1 to 10 nM

For this molecule ( CCc1cc(O)ccc1-c1ccc2c(-c3nc(C4=CCCN(C5CCN(C)CC5)C4)c[nH]3)n[nH]c2c1F ), measured Ki is 1 to 10 nM

For this molecule ( CCc1cc(O)ccc1-c1ccc2c(-c3nc(C4=C[C@@H](CO)NC4)c[nH]3)n[nH]c2c1F ), measured Ki is 10 to 100 nM

For this molecule ( CCc1cc(O)ccc1-c1ccc2c(-c3nc(C4=CCN(CCCO)CC4)c[nH]3)n[nH]c2c1F ), measured Ki is 1 to 10 nM

For this molecule ( CCc1cc(O)ccc1-c1ccc2c(-c3nc(C4=CCN(C(=O)[C@@H]5CCCN5)C4)c[nH]3)n[nH]c2c1F ), measured Ki is 1 to 10 nM

For this molecule ( CCc1cc(O)ccc1-c1ccc2c(-c3nc(C4=CCN(CCO)CC4)c[nH]3)n[nH]c2c1 ), measured Ki is 0.1 to 1 nM

For this molecule ( CCc1cc(O)ccc1-c1ccc2c(-c3nc(C4=CCCN(CCCO)C4)c[nH]3)n[nH]c2c1 ), measured Ki is 1 to 10 nM

For this molecule ( CCc1cc(O)ccc1-c1ccc2c(-c3nc(C4=CCN(CCO)CC4)c[nH]3)n[nH]c2c1F ), measured Ki is 1 to 10 nM

For this molecule ( CCc1cc(O)ccc1-c1ccc2c(-c3nc(C4=CCN(C5CCCNC5)C4)c[nH]3)n[nH]c2c1F (stereo not shown) ), measured Ki is 1 to 10 nM

For this molecule ( CCc1cc(O)ccc1-c1ccc2c(-c3nc(C4=CCN(CC)CC4)c[nH]3)n[nH]c2c1F ), measured Ki is 1 to 10 nM
